- EXPERIMENTAL_DETAILS: Antioxidant activity assessed as DPPH radical scavenging activity at 100 uM after 30 mins (reference value: 1.9 +/- 1.2%)
- Format: functional
// reported Activity for each item listed
Entry rule: numbers only, all in %.

Below, 4 molecules whose answers are already recorded.
MOLECULE	TEST_VALUE
COc1ccc(/C=N/NC(=O)c2ccncc2)cc1	2.4
O=C(N/N=C/c1ccc([N+](=O)[O-])cc1)c1ccncc1	2.5
O=c1c(O)c(-c2ccc(O)c(O)c2)oc2cc(O)cc(O)c12 [QUERCETIN]	96.3
CN(C)c1ccc(/C=N/NC(=O)c2ccncc2)cc1	6.3

Now let's try a different one.
The reported Activity of the molecule O=C(N/N=C/c1cc(O)ccc1O)c1ccncc1 was 92.4

---

// reported inhibition for each item listed
- Species on record: Rattus norvegicus
- EXPERIMENTAL_DETAILS: Inhibition of rat bone marrow myeloperoxidase using H2O2 as substrate at 10 uM after 20 mins by TMB based method (reference value: - 1.4 +/- 12.7%)
Entry rule: numbers only, all in %.

Below, 3 compounds whose answers are already recorded.
COMPOUND	ENDPOINT_UNIT	inhibition
NNC(=O)c1ccncc1 [ISONIAZID]	%	99
O=c1c(O)c(-c2ccc(O)c(O)c2)oc2cc(O)cc(O)c12 [QUERCETIN]	%	96.3
O=C(N/N=C/c1cc(Br)ccc1O)c1ccncc1	%	90

The reported inhibition of the compound O=C(N/N=C/c1ccc(F)cc1)c1ccncc1 was 4.6

The reported inhibition of the compound O=C(N/N=C/c1coc2ccccc2c1=O)c1ccncc1 was 80.1

---

- EXPERIMENTAL_DETAILS: Antioxidant activity assessed as DPPH radical scavenging activity at 100 uM after 30 mins (reference value: 1.9 +/- 1.2%)
- Assay type: functional
// reported Activity for each item listed
Entry rule: numbers only, all in %.

The reported Activity of the molecule O=C(N/N=C/c1c[nH]c2ccccc12)c1ccncc1 was 28.8

The reported Activity of the molecule CCN(C)C(=O)Oc1cccc([C@H](C)N(C)C)c1 was 0.2

The reported Activity of the molecule O=C(N/N=C/c1coc2ccccc2c1=O)c1ccncc1 was 82.2

The reported Activity of the molecule COc1cc(/C=N/NC(=O)c2ccncc2)ccc1O [FTIVAZIDE] was 76.7

The reported Activity of the molecule O=C(N/N=C/c1ccc(Cl)c(Cl)c1)c1ccncc1 was 3.9

The reported Activity of the molecule O=C(N/N=C/c1cccc([N+](=O)[O-])c1)c1ccncc1 was 2

The reported Activity of the molecule O=C(N/N=C/c1ccccc1O)c1ccncc1 was 5.3

The reported Activity of the molecule O=C(N/N=C/c1ccccc1)c1ccncc1 was 3.3

The reported Activity of the molecule O=C(N/N=C/c1ccc(F)cc1)c1ccncc1 was 8.1

The reported Activity of the molecule NNC(=O)c1ccncc1 was 91.3

The reported Activity of the molecule O=C(N/N=C/c1cc(Br)ccc1O)c1ccncc1 was 3.9

The reported Activity of the molecule O=C(N/N=C/c1ccccn1)c1ccncc1 was -0.6

The reported Activity of the molecule O=C(N/N=C/c1ccc(O)cc1)c1ccncc1 was 28.7

---

// reported inhibition for each item listed
- EXPERIMENTAL_SYSTEM: Acetylcholinesterase (Electrophorus electricus)
- EXPERIMENTAL_DETAILS: Inhibition of Electrophorus electricus AChE at 100 uM using acetylthiocholine iodide as substrate preincubated for 30 mins followed by substrate addition and measured after 10 mins by Ellman's method
Entry rule: numbers only, all in %.

COMPOUND	inhibition (%)
O=C(N/N=C/c1ccccc1)c1ccncc1	16.5
O=C(N/N=C/c1cccc([N+](=O)[O-])c1)c1ccncc1	36.2
O=C(N/N=C/c1cc(O)ccc1O)c1ccncc1	0.3

The reported inhibition of the compound O=C(N/N=C/c1ccc(O)cc1)c1ccncc1 was 10

The reported inhibition of the compound O=C(N/N=C/c1ccccn1)c1ccncc1 was 24.5

The reported inhibition of the compound NNC(=O)c1ccncc1 [ISONIAZID] was 5.8

The reported inhibition of the compound CCN(C)C(=O)Oc1cccc([C@H](C)N(C)C)c1 was 59.6

The reported inhibition of the compound O=C(N/N=C/c1coc2ccccc2c1=O)c1ccncc1 was 54.2

The reported inhibition of the compound O=C(N/N=C/c1cc(Br)ccc1O)c1ccncc1 was 6.8

The reported inhibition of the compound COc1cc(/C=N/NC(=O)c2ccncc2)ccc1O [FTIVAZIDE] was 23.1

The reported inhibition of the compound O=C(N/N=C/c1c[nH]c2ccccc12)c1ccncc1 was 5.5

---

// reported inhibition for each item listed
- Species on record: Rattus norvegicus
- EXPERIMENTAL_DETAILS: Inhibition of rat bone marrow myeloperoxidase using H2O2 as substrate at 10 uM after 20 mins by TMB based method (reference value: - 1.4 +/- 12.7%)
Entry rule: numbers only, all in %.

Below, 5 molecules whose answers are already recorded.
MOLECULE	inhibition, %
O=C(N/N=C/c1ccccn1)c1ccncc1	0.3
COc1ccc(/C=N/NC(=O)c2ccncc2)cc1	6
O=C(N/N=C/c1ccccc1)c1ccncc1	5.1
O=C(N/N=C/c1ccccc1O)c1ccncc1	45.3
O=C(N/N=C/c1ccc(Cl)c(Cl)c1)c1ccncc1	-2.4

The reported inhibition of the molecule O=C(N/N=C/c1ccc([N+](=O)[O-])cc1)c1ccncc1 was 32

The reported inhibition of the molecule CCN(C)C(=O)Oc1cccc([C@H](C)N(C)C)c1 was 17.1

The reported inhibition of the molecule O=C(N/N=C/c1c[nH]c2ccccc12)c1ccncc1 was 82.2

The reported inhibition of the molecule O=C(N/N=C/c1cc(O)ccc1O)c1ccncc1 was 100

The reported inhibition of the molecule O=C(N/N=C/c1cccc([N+](=O)[O-])c1)c1ccncc1 was -10

The reported inhibition of the molecule COc1cc(/C=N/NC(=O)c2ccncc2)ccc1O [FTIVAZIDE] was 17.3

The reported inhibition of the molecule CN(C)c1ccc(/C=N/NC(=O)c2ccncc2)cc1 was 96.1

---

// reported inhibition for each item listed
- EXPERIMENTAL_SYSTEM: Acetylcholinesterase (Electrophorus electricus) (UniProt O42275)
- Sequence (O42275 24-633 limits assumed): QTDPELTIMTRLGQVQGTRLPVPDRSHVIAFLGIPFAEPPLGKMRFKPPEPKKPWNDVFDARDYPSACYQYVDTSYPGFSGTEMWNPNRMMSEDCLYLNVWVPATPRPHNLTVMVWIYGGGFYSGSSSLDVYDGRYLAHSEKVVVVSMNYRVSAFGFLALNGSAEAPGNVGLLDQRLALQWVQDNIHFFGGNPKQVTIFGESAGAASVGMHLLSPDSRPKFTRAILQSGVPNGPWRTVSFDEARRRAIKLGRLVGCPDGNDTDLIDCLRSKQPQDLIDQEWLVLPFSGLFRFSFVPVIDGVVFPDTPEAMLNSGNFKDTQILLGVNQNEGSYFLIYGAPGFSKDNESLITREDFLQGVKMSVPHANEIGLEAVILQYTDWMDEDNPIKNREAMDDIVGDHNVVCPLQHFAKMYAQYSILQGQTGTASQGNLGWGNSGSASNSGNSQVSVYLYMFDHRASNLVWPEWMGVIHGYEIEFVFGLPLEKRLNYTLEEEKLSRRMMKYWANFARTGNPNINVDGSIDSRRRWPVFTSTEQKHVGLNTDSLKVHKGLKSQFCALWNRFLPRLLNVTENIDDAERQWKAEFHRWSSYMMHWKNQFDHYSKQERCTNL
- EXPERIMENTAL_DETAILS: Inhibition of Electrophorus electricus AChE at 100 uM using acetylthiocholine iodide as substrate preincubated for 30 mins followed by substrate addition and measured after 10 mins by Ellman's method
Entry rule: numbers only, all in %.

Below, 3 compounds whose answers are already recorded.
CHEMICAL_SMILES	ENDPOINT_UNIT	inhibition
COc1ccc(/C=N/NC(=O)c2ccncc2)cc1	%	8
O=C(N/N=C/c1ccc(F)cc1)c1ccncc1	%	16.3
O=C(N/N=C/c1ccc(Cl)c(Cl)c1)c1ccncc1	%	14

The reported inhibition of the compound O=C(N/N=C/c1ccccc1O)c1ccncc1 was 3

The reported inhibition of the compound O=C(N/N=C/c1ccc([N+](=O)[O-])cc1)c1ccncc1 was 12.7

The reported inhibition of the compound CN(C)c1ccc(/C=N/NC(=O)c2ccncc2)cc1 was 6.9
